System: Leishmania donovani
Test details: Antileishmanial activity against promastigote stage of Leishmania donovani MHOM/IN/83/AG83 assessed as inhibition of parasite viability after 48 hrs by MTS assay
Format: functional, organism-based
Experimental parameters: MHOM/IN/83/AG83, 48 h
Metric name: IC50

Inquiry: Fill blank: measured IC50 of the compound `C[C@@H]1CC[C@H]2[C@@H](C)C(=O)O[C@@H]3O[C@@]4(C)CC[C@@H]1[C@]32OO4` is ____.
Reply text: 100 to 160 µM

###

Tested on: Vero
Test details: Cytotoxicity against African green monkey Vero cells after 72 hrs by plate reader based Alamar blue assay
Format: cell-based
Experimental parameters: chlorocebus sabaeus, vero, 72 h
Metric name: CC50 (µM)
One number for each entry, in µM.

Inquiry: Requested read-out: CC50. Entry: CO[C@]1(C)OOC2(CC[C@H]3C[C@@H]2C3(C)C)C[C@H]1CNCCCn1ccnc1 (mixture of isomers; form 2)
Reply text: 276

###

Test details: Cytotoxicity against African green monkey Vero cells after 72 hrs by plate reader based Alamar blue assay
Format: cell-based
Experimental parameters: chlorocebus sabaeus, Vero cells
Could you please mark 1 for values of CC50 at 72 h below 100 µM and -1 for values at or above it?

Solved cases below.
Compound: CCCCC1(CCCC)C[C@@H](COCc2cn(CC(O)(Cn3cncn3)c3ccc(F)cc3F)nn2)[C@@](C)(OC)OO1 (mixture of isomers)
Assigned label: -1

Compound: CCCCC1(CCCC)C[C@@H](CNCCCn2ccnc2)[C@@](C)(OC)OO1 (racemic)
Assigned label: 1

Compound: CO[C@@]1(C)OOC(c2ccccc2)(c2ccccc2)C[C@H]1CNCCCn1ccnc1 (racemic)
Assigned label: 1

Compound: CCCC[C@]1(OC)OOC(c2ccccc2)(c2ccccc2)C[C@H]1CNCCCn1ccnc1 (racemic)
Assigned label: 1

Compound: CCCCC1(CCCC)C[C@@H](CNCCCNc2ccnc3cc(Cl)ccc23)[C@@](C)(OC)OO1 (racemic)
Assigned label: 1

Compound: CO[C@@]1(C)OOC(c2ccc(F)cc2)(c2ccc(F)cc2)C[C@H]1CNCCCn1ccnc1 (racemic)
Assigned label: 1

Compound: CO[C@]1(C)OOC2(CC[C@H]3C[C@@H]2C3(C)C)C[C@H]1CNCCCn1ccnc1 (mixture of isomers; form 1)
Assigned label: -1

Compound: CCCCC1(CCCC)C[C@@H](CNCCCn2ccnc2)[C@@](CCCC)(OC)OO1 (racemic)
Assigned label: 1

Compound: CO[C@@]1(C)OOC2(CC[C@H]3C[C@@H]2C3(C)C)C[C@H]1CNCCCn1ccnc1 (mixture of isomers)
Assigned label: -1

Compound: CCCCC1(CCCC)C[C@@H](COCc2cn(CCC[P+](c3ccccc3)(c3ccccc3)c3ccccc3)nn2)[C@](C)(OC)OO1 (racemic)
Assigned label: -1

Inquiry: Find out if reported CC50 at 72 h for CO[C@@]1(C)OOC(c2ccccc2)(c2ccccc2)C[C@H]1COCc1cn(CCC[P+](c2ccccc2)(c2ccccc2)c2ccccc2)nn1 (racemic) is less than 100 µM
Reply text: -1

Inquiry: Threshold test, CC50 at 72 h < 100 µM: CCCCC1(CCCC)C[C@@H](CNCCCn2ccnc2)[C@](C)(OC)OO1 (racemic)
Reply text: -1

###

Test details: Selectivity index, ratio of CC50 for African green monkey Vero cells to IC50 for Leishmania donovani MHOM/NP/02/BPK282/0c14
Assay type: toxicity
Experimental parameters: Vero cells, read-out: Ratio CC50/IC50
Please provide measured selectivity ratio for the entries that follow.
Answers are plain numbers.

Answered cases to consult:
Compound: CCCCC1(CCCC)C[C@@H](CNCCCn2ccnc2)[C@@](CCCC)(OC)OO1 (racemic)
selectivity ratio: 5.2

Compound: CCCCC1(CCCC)C[C@@H](COCc2cn(CCC[P+](c3ccccc3)(c3ccccc3)c3ccccc3)nn2)[C@](C)(OC)OO1 (racemic)
selectivity ratio: 5

Compound: CO[C@@]1(C)OOC2(CC[C@H]3C[C@@H]2C3(C)C)C[C@H]1CNCCCn1ccnc1 (mixture of isomers)
selectivity ratio: 16.8

Compound: CCCC[C@]1(OC)OOC(c2ccccc2)(c2ccccc2)C[C@H]1CNCCCn1ccnc1 (racemic)
selectivity ratio: 2.3

Compound: CCCCC1(CCCC)C[C@@H](CNCCCn2ccnc2)[C@](C)(OC)OO1 (racemic)
selectivity ratio: 35

Compound: CCCCC1(CCCC)C[C@@H](COCc2cn(CCC[P+](c3ccccc3)(c3ccccc3)c3ccccc3)nn2)[C@@](C)(OC)OO1 (racemic)
selectivity ratio: 6.6

Compound: CO[C@@]1(C)OOC(c2ccc(F)cc2)(c2ccc(F)cc2)C[C@H]1CNCCCn1ccnc1 (racemic)
selectivity ratio: 7.8

Compound: CCCCC1(CCCC)C[C@@H](COCc2cn(CC(O)(Cn3cncn3)c3ccc(F)cc3F)nn2)[C@@](C)(OC)OO1 (mixture of isomers)
selectivity ratio: 12.2

Compound: CCCCC1(CCCC)C[C@@H](CNCCCNc2ccnc3cc(Cl)ccc23)[C@@](C)(OC)OO1 (racemic)
selectivity ratio: 2.5

Compound: CO[C@]1(C)OOC2(CC[C@H]3C[C@@H]2C3(C)C)C[C@H]1CNCCCn1ccnc1 (mixture of isomers; form 1)
selectivity ratio: 18.3

Quick one: give me selectivity ratio for each item below, same order please.
1. CO[C@@]1(C)OOC(c2ccccc2)(c2ccccc2)C[C@H]1COCc1cn(CCC[P+](c2ccccc2)(c2ccccc2)c2ccccc2)nn1 (racemic)
2. C[C@@H]1[C@H](O)[C@@H](C)/C=C/C=C/C=C/C=C/C=C/C=C/C=C/[C@H](O[C@@H]2O[C@H](C)[C@@H](O)[C@H](N)[C@@H]2O)C[C@@H]2O[C@](O)(C[C@@H](O)C[C@@H](O)[C@H](O)CC[C@@H](O)C[C@@H](O)CC(=O)O[C@H]1C)C[C@H](O)[C@H]2C(=O)O
3. CO[C@@]1(C)OOC(c2ccccc2)(c2ccccc2)C[C@H]1CNCCCn1ccnc1 (racemic)
4. CCCCC1(CCCC)C[C@@H](CNCCCn2ccnc2)[C@@](C)(OC)OO1 (racemic)

Reply text:
24.3
667
6.7
13.5

###

Test system: Leishmania donovani
Test details: Antileishmanial activity against late log/stationary phase of promastigote stage of Leishmania donovani MHOM/NP/02/BPK282/0c14 assessed as parasite growth inhibition after 72 hrs by plate reader based Alamar blue assay
Format: functional, organism-based
Please respond with reported pIC50 for every item in the list.
One number for each entry, as −log10 of the molar value.

Compound: CO[C@]1(C)OOC2(CC[C@H]3C[C@@H]2C3(C)C)C[C@H]1CNCCCn1ccnc1 (mixture of isomers; form 2)
Target desc: Leishmania donovani
pIC50: 5.10

API: the following record is the query input.
Inquiry: Which pIC50 is listed for CO[C@]1(C)OOC2(CC[C@H]3C[C@@H]2C3(C)C)C[C@H]1CNCCCn1ccnc1 (mixture of isomers; form 1) ?
Reply text: 4.79

Source of measurements: ChEMBL document CHEMBL4393655
